- test.name: steady-state plasma exposure in mouse disease models
- Type: in vivo
- run.conditions: C57B1/6, mouse, 3 mg/kg, mannan PsA in C57B1/6 mice
property.label: AUC (ng·h/mL)
The response must be a number in ng·h/mL with no trailing unit.

Which AUC value belongs to CCOCc1cnc(Cl)nc1Oc1ccc2c(ccc3sc4c(c32)NC[C@@H](C)NC4=O)n1 [Compound 1] ? 467

---

- test.name: toxicokinetics, 28-day monkey study
- Type: in vivo, cynomolgus monkey
- run.conditions: male, cynomolgus monkey, plasma, po, 150 mg/kg/day, monkey, Study Day 1, male, 150 mg/kg/day; read-out: AUCLST
property.label: AUC (ng·h/mL)
Provide only the numeric value, understood in ng·h/mL.

Can you share its AUC? I mean this molecule: CCOCc1cnc(Cl)nc1Oc1ccc2c(ccc3sc4c(c32)NC[C@@H](C)NC4=O)n1 5840
